This collection of values is drawn from patent US8541427B2.

# system: hERG (Homo sapiens (Human))
# assay_name: hERG screening, Rubidium Efflux (hERG-CHO cells)
# Type: cell-based
# experimental_parameters: CHO cells expressing hERG, pH 7.4, 5 uG/mL, read-out: HERG Rb efflux % Inhib 5 uG/mL
readout_type: inhibition at 30 min, 5 uG/mL

>>> df
                                  structure                   readout_type  observed_measurement
0  Cc1nc(N2C[C@H]3C(=O)N(C)C(=N)N[C@@]3(c3ccc(F)cc3)C2)nc(C)c1F  inhibition at 30 min, 5 uG/mL                   14%
1  COc1nc(N2C[C@H]3C(=O)N(C)C(N)=N[C@@]3(c3c(F)cc(F)c(F)c3F)C2)nc(C)c1F  inhibition at 30 min, 5 uG/mL                    3%

---

Known inhibition at 5 min, 1 uM of a selection of compounds
# system: hERG (Homo sapiens (Human), UniProt Q12809)
# Sequence (Q12809 whole entry): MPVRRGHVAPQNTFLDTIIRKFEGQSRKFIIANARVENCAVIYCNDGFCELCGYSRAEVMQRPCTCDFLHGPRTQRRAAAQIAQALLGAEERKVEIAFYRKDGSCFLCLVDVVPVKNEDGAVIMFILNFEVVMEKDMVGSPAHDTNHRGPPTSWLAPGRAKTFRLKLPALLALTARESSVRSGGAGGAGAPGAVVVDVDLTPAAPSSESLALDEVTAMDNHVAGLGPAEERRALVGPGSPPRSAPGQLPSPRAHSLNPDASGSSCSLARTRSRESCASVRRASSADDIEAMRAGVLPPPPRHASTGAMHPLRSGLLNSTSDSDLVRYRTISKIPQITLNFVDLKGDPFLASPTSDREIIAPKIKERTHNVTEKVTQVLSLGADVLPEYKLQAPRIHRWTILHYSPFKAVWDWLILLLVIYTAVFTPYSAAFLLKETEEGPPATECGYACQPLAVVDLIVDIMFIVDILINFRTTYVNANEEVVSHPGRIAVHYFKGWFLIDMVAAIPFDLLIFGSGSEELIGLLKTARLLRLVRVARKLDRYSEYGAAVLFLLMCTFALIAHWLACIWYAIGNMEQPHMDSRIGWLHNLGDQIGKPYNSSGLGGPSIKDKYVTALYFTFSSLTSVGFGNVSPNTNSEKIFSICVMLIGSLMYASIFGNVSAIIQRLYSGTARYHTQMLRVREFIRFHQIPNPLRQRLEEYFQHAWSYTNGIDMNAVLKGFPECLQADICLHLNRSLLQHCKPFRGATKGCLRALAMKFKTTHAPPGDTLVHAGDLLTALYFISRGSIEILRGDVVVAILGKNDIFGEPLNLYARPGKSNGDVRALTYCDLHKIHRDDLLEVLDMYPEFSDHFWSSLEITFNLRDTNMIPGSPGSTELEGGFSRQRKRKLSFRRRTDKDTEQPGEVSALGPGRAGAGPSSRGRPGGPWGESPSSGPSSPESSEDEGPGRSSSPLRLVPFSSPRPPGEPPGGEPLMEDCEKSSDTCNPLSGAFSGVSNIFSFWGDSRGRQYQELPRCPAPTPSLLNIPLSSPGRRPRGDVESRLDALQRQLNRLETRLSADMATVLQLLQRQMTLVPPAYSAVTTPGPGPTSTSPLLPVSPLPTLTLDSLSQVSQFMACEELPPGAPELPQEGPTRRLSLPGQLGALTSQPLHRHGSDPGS
# assay_name: hERG screening, IonWorks Quattro (hERG L929 cells)
# Type: cell-based
# experimental_parameters: L929 cells expressing hERG, 1 uM, read-out: HERG Ionworks % Inhib 1 uM
readout_type: inhibition at 5 min, 1 uM (%)

>>> df
                                   compound                                    system               readout_type  observed_measurement
0  COc1nc(N2C[C@H]3C(=O)N(C)C(=N)N[C@@]3(c3cccc(C#N)c3)C2)nc(C)c1F [Example 36]  hERG (Homo sapiens (Human), UniProt Q12809)  inhibition at 5 min, 1 uM                     3
1  COc1nc(N2C[C@H]3C(=O)N(C)C(=N)N[C@@]3(c3cc(F)ccc3Cl)C2)nc(C)c1F [Example 2]  hERG (Homo sapiens (Human), UniProt Q12809)  inhibition at 5 min, 1 uM                     8
2  Cc1nc(N2C[C@H]3C(=O)N(C)C(=N)N[C@@]3(c3cc(F)ccc3F)C2)nc(C2CC2)c1F [Example 37]  hERG (Homo sapiens (Human), UniProt Q12809)  inhibition at 5 min, 1 uM                    12
3  COc1nc(N2C[C@H]3C(=O)N(C)C(=N)N[C@@]3(c3ccc(F)c(Cl)c3F)C2)nc(C)c1F (racemic) [39 racemic]  hERG (Homo sapiens (Human), UniProt Q12809)  inhibition at 5 min, 1 uM                     3
4  COc1nc(N2C[C@H]3C(=O)N(C)C(=N)N[C@@]3(c3ccc(F)cc3F)C2)nc(C2CC2)c1F [Example 38]  hERG (Homo sapiens (Human), UniProt Q12809)  inhibition at 5 min, 1 uM                    12
5  CCc1nc(N2C[C@H]3C(=O)N(C)C(=N)N[C@@]3(c3cc(F)ccc3F)C2)nc(OC)c1F [Example 31]  hERG (Homo sapiens (Human), UniProt Q12809)  inhibition at 5 min, 1 uM                    21
6  COc1nc(N2C[C@H]3C(=O)N(C)C(=N)N[C@@]3(c3ccc(F)cc3)C2)nc(OC)c1F [Example 27]  hERG (Homo sapiens (Human), UniProt Q12809)  inhibition at 5 min, 1 uM                     2

---

# system: CYP2D6 (Homo sapiens (Human))
# Sequence (P10635 whole entry): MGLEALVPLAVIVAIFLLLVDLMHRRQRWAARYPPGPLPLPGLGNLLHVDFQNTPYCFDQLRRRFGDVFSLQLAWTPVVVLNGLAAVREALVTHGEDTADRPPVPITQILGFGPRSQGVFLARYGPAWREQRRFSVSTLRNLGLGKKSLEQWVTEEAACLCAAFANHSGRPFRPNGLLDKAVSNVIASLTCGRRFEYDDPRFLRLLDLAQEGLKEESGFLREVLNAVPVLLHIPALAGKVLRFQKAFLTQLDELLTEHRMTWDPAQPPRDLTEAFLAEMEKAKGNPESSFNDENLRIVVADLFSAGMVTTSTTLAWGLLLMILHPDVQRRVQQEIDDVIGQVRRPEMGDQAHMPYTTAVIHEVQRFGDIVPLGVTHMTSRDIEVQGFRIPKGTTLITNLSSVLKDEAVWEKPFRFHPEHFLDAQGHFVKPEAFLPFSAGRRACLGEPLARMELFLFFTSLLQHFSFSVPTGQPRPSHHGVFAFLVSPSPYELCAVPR
# assay_name: CYP Inhibition Assay, CYP2D6
# Format: in vitro ADME
# experimental_parameters: human liver microsomes, 30 min pre-incubation with NADPH; read-out: CYP 2D6 IC50 pre
Each entry below carries its reported IC50.
readout_type: IC50

>>> df
                                    molecule  observed_measurement
 0  COc1nc(N2C[C@H]3C(=O)N(C)C(N)=N[C@@]3(c3c(F)cc(F)c(F)c3F)C2)nc(C)c1F               > 30 µM
 1  COc1nc(N2C[C@H]3C(=O)N(C)C(=N)N[C@@]3(c3ccc(F)cc3F)C2)nc(CO)c1F               > 20 µM
 2  COc1nc(N2C[C@H]3C(=O)N(C)C(N)=N[C@@]3(c3c(F)ccc(F)c3F)C2)nc(C)c1F               > 20 µM
 3  COc1nc(N2C[C@H]3C(=O)N(C)C(=N)N[C@@]3(c3ccc(F)cc3F)C2)nc(OC)c1F               > 30 µM
 4  CCc1nc(N2C[C@H]3C(=O)N(C)C(=N)N[C@@]3(c3ccc(F)cc3)C2)nc(OC)c1F               > 30 µM
 5  COc1nc(N2C[C@H]3C(=O)N(C)C(=N)N[C@@]3(c3cc(F)ccc3Cl)C2)nc(C)c1F               > 20 µM
 6  CCc1nc(N2C[C@H]3C(=O)N(C)C(=N)N[C@@]3(c3cc(F)ccc3F)C2)nc(OC)c1F               > 20 µM
 7  COc1nc(N2C[C@H]3C(=O)N(C)C(=N)N[C@@]3(c3ccc(F)cc3)C2)nc(OC)c1F                ~30 µM
 8  COc1nc(N2C[C@H]3C(=O)N(C)C(=N)N[C@@]3(c3cccc(C#N)c3)C2)nc(C)c1F               > 20 µM
 9  CCOc1nc(N2C[C@H]3C(=O)N(C)C(N)=N[C@@]3(c3ccccc3)C2)nc(C)c1F (racemic) [4 racemic]               > 30 µM
10  COc1nc(N2C[C@H]3C(=O)N(C)C(=N)N[C@@]3(c3c(F)cc(F)cc3F)C2)nc(C)c1F               > 20 µM
11  COc1nc(N2C[C@H]3C(=O)N(C)C(=N)N[C@@]3(c3ccc(F)cc3Cl)C2)nc(C)c1F               > 20 µM
12  COc1nc(N2C[C@H]3C(=O)N(C)C(=N)N[C@@]3(c3ccc(F)c(Cl)c3F)C2)nc(C)c1F (racemic) [39 racemic]               > 20 µM

---

List of pIC50 values.
# system: BACE1 (Aβ40 in HEK293-APPswe/lon cells) (Homo sapiens (Human), UniProt P56817)
# Sequence (P56817 46-501): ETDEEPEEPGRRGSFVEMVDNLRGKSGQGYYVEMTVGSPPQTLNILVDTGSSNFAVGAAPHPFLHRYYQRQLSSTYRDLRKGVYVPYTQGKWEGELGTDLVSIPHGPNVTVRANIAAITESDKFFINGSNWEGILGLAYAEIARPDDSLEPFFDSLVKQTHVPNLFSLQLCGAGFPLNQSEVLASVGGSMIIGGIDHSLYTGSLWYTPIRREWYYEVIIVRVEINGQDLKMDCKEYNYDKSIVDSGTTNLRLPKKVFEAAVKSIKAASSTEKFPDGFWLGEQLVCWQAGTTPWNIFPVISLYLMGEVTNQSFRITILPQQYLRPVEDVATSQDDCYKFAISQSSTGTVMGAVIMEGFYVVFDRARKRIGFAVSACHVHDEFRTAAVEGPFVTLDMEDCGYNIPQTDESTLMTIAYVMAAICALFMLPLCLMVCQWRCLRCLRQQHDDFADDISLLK
# assay_name: BACE Inhibitor Whole Cell IC50 Determination Using HEK293-APPswe/lon Cells (Aβ40)
# experimental_parameters: 4 hours
pIC50: −log10 of the molar value.
readout_type: pIC50

>>> print(df.to_string())
                                    molecule  observed_measurement
 0  COc1nc(N2C[C@H]3C(=O)N(C)C(=N)N[C@@]3(c3ccc(F)cc3F)C2)nc(CO)c1F                  7.68
 1  COc1nc(N2C[C@H]3C(=O)N(C)C(=N)N[C@@]3(c3ccc(F)cc3)C2)nc(OC)c1F                  7.21
 2  CCc1nc(N2C[C@H]3C(=O)N(C)C(=N)N[C@@]3(c3ccc(F)cc3)C2)nc(OC)c1F                  7.66
 3  COc1nc(N2C[C@H]3C(=O)N(C)C(=N)N[C@@]3(c3cc(F)ccc3F)C2)nc(OC)c1F                  7.18
 4  Cc1nc(N2C[C@H]3C(=O)N(C)C(N)=N[C@@]3(c3ccccc3)C2)nc(C2CC2)c1F (racemic) [25 racemic]                  6.46
 5  Cc1nc(N2C[C@H]3C(=O)N(C)C(=N)N[C@@]3(c3ccc(F)cc3)C2)nc(C)c1F                  6.94
 6  CCc1nc(N2C[C@H]3C(=O)N(C)C(=N)N[C@@]3(c3cc(F)ccc3F)C2)nc(OC)c1F                  7.51
 7  CCc1nc(N2C[C@H]3C(=O)N(C)C(=N)N[C@@]3(c3ccc(F)cc3F)C2)nc(OC)c1F                  7.59
 8  COc1nc(N2C[C@H]3C(=O)N(C)C(=N)N[C@@]3(c3cccc(C#N)c3)C2)nc(C)c1F                  7.20
 9  COc1nc(N2C[C@H]3C(=O)N(C)C(=N)N[C@@]3(c3ccc(F)cc3F)C2)nc(C2CC2)c1F                  7.51
10  CCc1nc(N2C[C@H]3C(=O)N(C)C(=N)N[C@@]3(c3cc(F)c(F)cc3F)C2)nc(OC)c1F                  7.74
11  COc1nc(N2C[C@H]3C(=O)N(C)C(=N)N[C@@]3(c3cc(F)ccc3F)C2)nc(C2CC2)c1F                  7.07
12  COc1nc(N2C[C@H]3C(=O)N(C)C(=N)N[C@@]3(c3c(F)cc(F)cc3F)C2)nc(C)c1F                  7.68
13  COc1nc(N2C[C@H]3C(=O)N(C)C(=N)N[C@@]3(c3ccc(F)c(Cl)c3F)C2)nc(C)c1F (racemic) [39 racemic]                  7.40
14  COc1nc(N2C[C@H]3C(=O)N(C)C(=N)N[C@@]3(c3ccc(F)cc3F)C2)nc(C2CC2)c1Cl                  6.93
